# testedOn: Neuronal acetylcholine receptor subunit alpha-7 (Rattus norvegicus) (UniProt Q05941)
# Sequence (Q05941 whole entry): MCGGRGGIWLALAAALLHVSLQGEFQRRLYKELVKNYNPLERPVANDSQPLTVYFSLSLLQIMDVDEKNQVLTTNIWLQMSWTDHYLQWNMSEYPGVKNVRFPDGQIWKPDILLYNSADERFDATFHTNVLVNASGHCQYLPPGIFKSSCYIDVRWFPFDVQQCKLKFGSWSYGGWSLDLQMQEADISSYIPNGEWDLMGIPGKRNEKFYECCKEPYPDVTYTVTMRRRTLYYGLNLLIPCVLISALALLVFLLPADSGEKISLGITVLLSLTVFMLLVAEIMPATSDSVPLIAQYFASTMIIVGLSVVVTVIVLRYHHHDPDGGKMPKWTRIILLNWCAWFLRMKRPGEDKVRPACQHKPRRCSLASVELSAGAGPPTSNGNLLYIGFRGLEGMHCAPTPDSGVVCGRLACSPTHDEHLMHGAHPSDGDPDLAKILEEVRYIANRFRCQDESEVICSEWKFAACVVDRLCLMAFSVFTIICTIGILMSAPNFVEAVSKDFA
# assayText: Agonistic activity against rat nicotinic acetylcholine receptor alpha-7 expressed in Xenopus oocytes
# Format: functional, cell-based
# experimentalContext: Oocyte
Overview of recorded Activity for various compounds
Answer with the number, then the unit.

1. CC(=O)OCC[N+](C)(C)C :: 50 µM
2. Clc1ccc(C2CC3CCC2N3)cn1 (racemic) [EPIBATIDINE] :: 0.5 µM
3. CN1C2CC[C@@H]1CC2c1ccnnc1 (stereo not given in full) :: 25 µM
4. c1cc(C2CC3CCC2N3)cnn1 (stereo not given) :: 40 µM

// next entry
Query Activity on Neuronal acetylcholine receptor subunit alpha-7 (Rattus norvegicus) (UniProt Q05941) for CN1CCC[C@H]1c1cccnc1.O=C(O)C(O)C(O)C(=O)O.O=C(O)C(O)C(O)C(=O)O
12.6 µM
